Consider compounds characterized by their GI50 with HCT-15.
Express your answer in µM, writing the number without its unit.

Solved entries:
INSERT INTO measurements (smiles_string, measured_parameter, reported_measurement) VALUES
  ('COc1ccc2c(c1OC)OC[C@@H](C1=CC(=O)C=C(O)C1=O)C2', 'GI50', 14.7),
  ('Cc1cc(C)n(C(=CC(=O)C(Cl)Cl)n2nc(C)cc2C)n1', 'GI50', 2.73);

Consider the record given below.
Note to self: GI50 of `Oc1ccc(-c2cc(-c3cc(-c4ccc(O)cc4)no3)on2)cc1` with HCT-15 was 1.98

====

Test system: ACHN
ASSAY SUMMARY: NCI tumour cell line growth inhibition, 48 h
Calls of active or inactive are those of the source. No stated cut-off is given here; in the data, active = GI50 up to about 1.1 µM and inactive = higher.
MEASURED PARAMETER: GI50

INSERT INTO assay_data (molecule, measured_parameter, reported_measurement) VALUES
  ('COc1ccc(OC)c(C23CCCC(C2)N(C)CC3)c1 (stereo unspecified)', 'GI50', '26.9 µM (inactive)'),
  ('CCOC(=O)C1(C#N)C(c2ccccc2)CC(O)(c2ccc([N+](=O)[O-])cc2)C(C(=O)c2ccc([N+](=O)[O-])cc2)C1c1ccccc1 (stereo unspecified)', 'GI50', '> 100 µM (inactive)'),
  ('Cc1ccc(/C=C2\CNC/C(=C\c3ccc(C)cc3)C2=O)cc1', 'GI50', '2.19 µM (inactive)'),
  ('O=C1Nc2cccc3cc(NCC(O)CCl)cc1c23 (stereo unspecified)', 'GI50', '30.3 µM (inactive)'),
  ('c1ccc2c(c1)nc1ccccn12', 'GI50', '> 100 µM (inactive)');

# context switch: different molecule, same GI50
The recorded GI50 for `COc1cc(/C=C2\C[C@H]3[C@@H]4CCc5cc(OCCN6CCCC6)ccc5[C@H]4CC[C@]3(C)C2=O)cc(OC)c1OC` is 1.79 µM (inactive)
